Assay: Mouse blood levels following a single intramuscular injection
Type: in vivo
Conditions: im, mice, 20 mg/kg, 30 minutes, read-out: Blood levels at minutes after administration: 30
Measured Quantity: concentration at 0.5 h (ng/mL)

Compound	Recorded Measurement
CO/N=C(\C(=O)NC1C(=O)N2C(C(=O)[O-])=C(C[N+](C)(C)C)CSC12)c1csc(N)n1 (stereo not shown) [Example 1]	8800

----------
System: Pr. morganii (1 strain), Ent. cloacae (2 strains) and Ser. marcescens (2 strains)
Assay: MIC by two-fold serial agar dilution, group (G-)-II
Type: cell-based
Conditions: Mueller-Hinton agar; 5 strains; Example 1: two different batches; read-out: Geometric Mean of MIC (G-)-II
Measured Quantity: MIC (µg/mL)

Compound	Target Or Test System	Recorded Measurement
CO/N=C(\C(=O)NC1C(=O)N2C(C(=O)[O-])=C(C[N+](C)(C)C)CSC12)c1csc(N)n1 (centres unmarked)	Pr. morganii (1 strain), Ent. cloacae (2 strains) and Ser. marcescens (2 strains)	0.69
CO/N=C(\C(=O)NC1C(=O)N2C(C(=O)[O-])=C(C[N+](C)(C)CCO)CSC12)c1csc(N)n1 (centres unmarked)	Pr. morganii (1 strain), Ent. cloacae (2 strains) and Ser. marcescens (2 strains)	0.6
C=CC[N+](C)(C)CC1=C(C(=O)[O-])N2C(=O)C(NC(=O)/C(=N\OC)c3csc(N)n3)C2SC1 (centres unmarked)	Pr. morganii (1 strain), Ent. cloacae (2 strains) and Ser. marcescens (2 strains)	0.69
CO/N=C(\C(=O)NC1C(=O)N2C(C(=O)[O-])=C(C[N+](C)(C)Cc3cccnc3)CSC12)c1csc(N)n1 (centres unmarked)	Pr. morganii (1 strain), Ent. cloacae (2 strains) and Ser. marcescens (2 strains)	0.69
CCO/N=C(\C(=O)NC1C(=O)N2C(C(=O)[O-])=C(C[N+](C)(C)C)CSC12)c1csc(N)n1 (centres unmarked)	Pr. morganii (1 strain), Ent. cloacae (2 strains) and Ser. marcescens (2 strains)	1.4
